Target: RPS6KB2 (human) (UniProt Q9UBS0)
Sequence (Q9UBS0 whole entry, looked up): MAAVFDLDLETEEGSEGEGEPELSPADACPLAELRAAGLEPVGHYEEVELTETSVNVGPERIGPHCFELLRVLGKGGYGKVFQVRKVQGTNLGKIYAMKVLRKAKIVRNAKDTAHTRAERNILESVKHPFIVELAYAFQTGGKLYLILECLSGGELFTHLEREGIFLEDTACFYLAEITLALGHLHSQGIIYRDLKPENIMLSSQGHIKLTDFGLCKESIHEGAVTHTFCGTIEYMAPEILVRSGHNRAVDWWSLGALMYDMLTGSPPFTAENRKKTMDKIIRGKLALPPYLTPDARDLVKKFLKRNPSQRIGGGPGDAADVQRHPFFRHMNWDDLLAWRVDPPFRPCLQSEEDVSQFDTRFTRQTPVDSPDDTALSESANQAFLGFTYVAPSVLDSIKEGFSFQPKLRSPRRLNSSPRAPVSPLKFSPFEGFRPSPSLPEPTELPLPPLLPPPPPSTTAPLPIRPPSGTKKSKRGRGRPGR
Experiment: radiometric filter-binding kinase assay, Kinase HotSpot
Settings: compound 0.5 µM; ATP 10 µM
Item-by-item account of residual activity
// units = %; emit number, no label

Take a look at these entries with their results.
Query smiles	residual activity [%]
CCCCc1c(-c2ccc(OC)cc2)[nH]c2nccnc12	99.7
CO[C@@H]1[C@H](N(C)C(=O)c2ccccc2)C[C@H]2O[C@]1(C)n1c3ccccc3c3c4c(c5c6ccccc6n2c5c31)C(=O)NC4	55.9
CN(C)c1ccc(/C=C2\C(=O)Nc3ccccc32)cc1	101
COc1ccc(Cl)cc1NC(=O)Nc1cc(C)nc2ccccc12	106

Next compound, residual activity to be filled in.
Param item = Ic1cccc(CSc2nnc(-c3ccncc3)o2)c1 ; retrieve measured residual activity.
103
